The reported measurements were obtained from patent US8324390B2.

Assay: log P determination by HPLC (EEC Directive 79/831 Annex V.A8)
Type: physicochemical
Conditions: reversed-phase HPLC, Zorbax Eclipse C18 column, by HPLC according to EEC Directive 79/831 Annex V.A8; read-out: log P
Below, each of the molecules is paired with its reported chromatographic logP value.
MEASUREMENT_NAME: chromatographic logP

COMPOUND | RESULT_NUMBER
Cc1cc(Cl)cc(C(N)=O)c1NC(=O)c1cc(Cn2nnc(C(F)(F)F)n2)nn1-c1ncccc1C(F)(F)F | 2.97
Cc1cc(C#N)cc(C(N)=O)c1NC(=O)c1cc(Cn2nnc(C(F)(F)F)n2)nn1-c1ncccc1C(F)(F)F | 2.67
Cc1cc(C#N)cc(C(=O)NC(C)(C)C)c1NC(=O)c1cc(Cn2nnc(C(F)(C(F)(F)F)C(F)(F)F)n2)nn1-c1ncccc1Cl | 4.1
CNC(=O)c1cc(C#N)cc(C)c1NC(=O)c1cc(Cn2nnc(C(F)(F)F)n2)nn1-c1cccc(Cl)c1Cl | 3.4
Cc1cc(C#N)cc(C(=O)NC(C)(C)C)c1NC(=O)c1cc(Cn2nnc(C(F)(F)F)n2)nn1-c1ccccc1Cl | 3.92
CNC(=O)c1cc(I)cc(C)c1NC(=O)c1cc(Cn2nnc(C(F)(F)F)n2)nn1-c1ncccc1C(F)(F)F | 3.4
CNC(=O)c1cc(C#N)cc(C)c1NC(=O)c1cc(Cn2nnc(C(F)(F)F)n2)nn1-c1ccccc1Cl | 3.09

* * *

Below, each of the compounds is paired with its reported chromatographic logP value.
Assay: log P determination by HPLC (EEC Directive 79/831 Annex V.A8)
Assay type: physicochemical
Conditions: log P

COMPOUND | chromatographic logP
Cc1cc(I)cc(C(=O)NC(C)C)c1NC(=O)c1cc(Cn2nnc(C(F)F)n2)nn1-c1ncccc1Cl | 3.2
Cc1cc(Br)cc(C(=O)NC2CC2)c1NC(=O)c1cc(Cn2nnc(C(F)(F)C(F)(F)F)n2)nn1-c1ncccc1Cl | 3.74
Cc1cc(I)cc(C(=O)NC(C)(C)C)c1NC(=O)c1cc(Cn2nnc(C(F)F)n2)nn1-c1ncccc1Cl | 3.5
CSC[C@H](C)NC(=O)c1cc(C)cc(C)c1NC(=O)c1cc(Cn2nnc(C(F)(F)F)n2)nn1-c1ncccc1Cl | 3.5
CNC(=O)c1cc(Cl)cc(Cl)c1NC(=O)c1cc(Cn2nnnc2C(F)F)nn1-c1ncccc1Cl | 2.22
Cc1cc(Cl)cc(C(=O)NC(C)C2CC2)c1NC(=O)c1cc(Cn2nnc(C(F)(F)F)n2)nn1-c1ncccc1Cl (centres unmarked) | 3.79
Cc1cc(I)cc(C(=O)NC(C)C2CC2)c1NC(=O)c1cc(Cn2nnc(C(F)F)n2)nn1-c1ncccc1Cl (centres unmarked) | 3.52
Cc1cc(C#N)cc(C(=O)NC2CC2)c1NC(=O)c1cc(Cn2nnnc2C(F)(F)C(F)(F)F)nn1-c1ncccc1Cl | 2.95
Cc1cc(Cl)cc(C(=O)NCC2CC2)c1NC(=O)c1cc(Cn2nnc(C(F)(F)C(F)(F)F)n2)nn1-c1ncccc1Cl | 3.93
Cc1cc(Cl)cc(C(=O)NC2CCC2)c1NC(=O)c1cc(Cn2nnc(C(F)(F)C(F)(F)F)n2)nn1-c1ncccc1Cl | 4.03
Cc1cc(F)cc(C(=O)NC(C)C2CC2)c1NC(=O)c1cc(Cn2nnc(C(F)(F)C(F)(F)F)n2)nn1-c1ncccc1Cl (centres unmarked) | 3.8
Cc1cc(C#N)cc(C(=O)NCC2CC2)c1NC(=O)c1cc(Cn2nnc(C(F)(F)C(F)(F)F)n2)nn1-c1ncccc1Cl | 3.56
Cc1cc(Cl)cc(C(N)=O)c1NC(=O)c1cc(Cn2nnc(C(F)(F)F)n2)nn1-c1ncccc1Cl | 2.76
Cc1cc(C#N)cc(C(=O)NCc2ccco2)c1NC(=O)c1cc(Cn2nnc(C(F)(F)F)n2)nn1-c1ncccc1Cl | 3.14
